# procedure_summary: Pharmacokinetic study in rats after oral administration of N. incisum extract (HPLC-FLD of plasma)
# Type: in vivo, Sprague–Dawley rats
# test_settings: male, Sprague-Dawley, rat, in vivo, po, 4.2 g/kg, T max
test_readout: Tmax

[
  {
    "molecular_string": "CC(C)=CCOc1c2occc2cc2ccc(=O)oc12",
    "test_readout": "Tmax",
    "result": "< 2 h"
  }
]

----------
# procedure_summary: Pharmacokinetic study in rats after oral administration of N. incisum extract (HPLC-FLD of plasma)
# Format: in vivo, Sprague–Dawley rats
# test_settings: male, Sprague-Dawley; rat plasma, oral 4.2 g kg^−1 N. incisum extract, n = 8, mean ± SD; read-out: C max

[
  {
    "compound": "COc1c2ccoc2cc2oc(=O)ccc12 [Bergapten, bergapten]",
    "unit_symbol": "ng/mL",
    "Cmax": 184
  },
  {
    "compound": "CC(C)=CCOc1c2ccoc2cc2oc(=O)ccc12 [Isoimperatorin, isoimperatorin]",
    "unit_symbol": "ng/mL",
    "Cmax": 145
  },
  {
    "compound": "CC(C)=CC(O)C/C(C)=C/COc1c2ccoc2cc2oc(=O)ccc12 (stereo not drawn) [Notopterol, notopterol]",
    "unit_symbol": "ng/mL",
    "Cmax": 23.3
  }
]

Reference for the values: paper PMC5220503
